assay: Permeability of compound by PAMPA assay; type: ADME; details: read-out: permeability
Exercise: for every item that follows, state its recorded Papp.

Observe how each entry below is paired with its result.
[[record]]
compound = "COc1ccc2oc(NC3=NC(c4ccccc4Cl)C(C(=O)Nc4cc(C(=O)O)ccn4)=C(C)N3)nc2c1 (stereo not drawn)"
reading = "< 1 ×10⁻⁶ cm/s"

[[record]]
compound = "CC1=C(C(=O)Nc2cc(C(=O)O)ccn2)C(c2ccc(-n3ccnc3)cc2Cl)N=C(Nc2nc3ccc(F)cc3o2)N1 (stereo not drawn)"
reading = "< 1 ×10⁻⁶ cm/s"


State the recorded Papp for every item in the following list.
1. CC1=C(C(=O)Nc2cc(C(=O)O)ccn2)C(c2ccc(C)cc2Cl)N=C(Nc2nc3cccnc3o2)N1 (stereo not drawn)
2. CC1=C(C(=O)Nc2ccccc2)C(c2ccccc2Cl)N=C(Nc2nc3ccccc3o2)N1 (stereo not drawn)
3. CC1=C(C(=O)Nc2cc(C(=O)O)ccn2)C(c2cccc(F)c2Cl)N=C(Nc2nc3ccc(F)cc3o2)N1 (stereo not drawn)
4. CC1=C(C(=O)Nc2cc(C(=O)O)ccn2)[C@H](c2ccccc2Cl)N=C(Nc2nc3ccccc3o2)N1
5. CC1=C(C(=O)Nc2cc(C(=O)O)ccn2)C(c2ccc(C(=O)O)cc2Cl)N=C(Nc2nc3ccc(F)cc3o2)N1 (stereo not drawn)
6. COc1ccc([C@H]2N=C(Nc3nc4cccc(N)c4o3)NC(C)=C2C(=O)Nc2cc(C(=O)O)ccn2)c(Cl)c1

output:
1: < 1 ×10⁻⁶ cm/s; 2: < 10 ×10⁻⁶ cm/s; 3: < 10 ×10⁻⁶ cm/s; 4: < 1 ×10⁻⁶ cm/s; 5: < 1 ×10⁻⁶ cm/s; 6: < 1 ×10⁻⁶ cm/s

====

experiment: Stability of compound in rat microsomes assessed as half-life; type: ADME, Microsome
Exercise: for every item that follows, state its recorded log10 of half-life.
Please keep in mind that the values are log10 of half-life expressed in min.

Observe how each entry below is paired with its result.
[[record]]
molecule = "CC1=C(C(=O)NCc2cnn(C)c2)C(c2ccc(F)cc2Cl)N=C(Nc2nc3cccc(N)c3o2)N1 (centres undefined)"
reading = 1.47

[[record]]
molecule = "CC1=C(C(=O)Nc2ccc(C#N)cc2)C(c2ccccc2Cl)N=C(Nc2nc3ccccc3o2)N1 (centres undefined)"
reading = 1.40

[[record]]
molecule = "CC1=C(C(=O)NCc2cn(C)cn2)[C@@H](c2ccccc2Cl)N=C(Nc2nc3ccccc3o2)N1"
reading = 0.94


State the recorded log10 of half-life for every item in the following list.
1. CC1=C(C(=O)NCc2c(C)nn(C)c2C)C(c2ccc(C)cc2Cl)N=C(Nc2nc3cccc(N)c3o2)N1 (centres undefined)
2. COC(=O)c1ccnc(NC(=O)C2=C(C)NC(Nc3nc4ccccc4o3)=N[C@H]2c2ccccc2Cl)c1

output:
[0.37, 1.30]

====

experiment: Permeability of compound by PAMPA assay; assay type: ADME
Exercise: for every item that follows, state its recorded permeability.

Observe how each entry below is paired with its result.
[[record]]
molecule = "CC1=C(C(=O)Nc2ccccc2CO)C(c2ccccc2Cl)N=C(Nc2nc3ccccc3o2)N1 (centres undefined)"
experimental_endpoint = "permeability"
reading = "1038.5 10^-6 cm/s"

[[record]]
molecule = "CC1=C(C(=O)Nc2cccc(CO)c2)C(c2ccccc2Cl)N=C(Nc2nc3ccccc3o2)N1 (centres undefined)"
experimental_endpoint = "permeability"
reading = "1124.1 10^-6 cm/s"


State the recorded permeability for every item in the following list.
1. CC1=C(C(=O)N2CCOCC2)C(c2ccccc2Cl)N=C(Nc2nc3ccccc3o2)N1 (centres undefined)
2. CC1=C(C(=O)Nc2nncs2)C(c2nn(C)cc2Br)N=C(Nc2nc3ccccc3o2)N1 (centres undefined)

output:
1: 1046.7 10^-6 cm/s; 2: 1044 10^-6 cm/s

State the recorded permeability for every item in the following list.
1. CC1=C(C(=O)NCc2ccccn2)C(c2ccccc2Cl)N=C(Nc2nc3ccccc3o2)N1 (centres undefined)
2. CC1=C(C(=O)NCc2cccnc2)C(c2ccccc2Cl)N=C(Nc2nc3ccccc3o2)N1 (centres undefined)
3. COP(=O)(OC)C1=C(C)NC(Nc2nc3ccccc3o2)=NC1c1ccccc1Cl (centres undefined)

output:
1. 1424 10^-6 cm/s
2. 1248.8 10^-6 cm/s
3. 1813.86 10^-6 cm/s

State the recorded permeability for every item in the following list.
1. CC1=C(C(=O)NCc2cnn(C)c2)C(c2ccc(C)cc2Cl)N=C(Nc2nc3cccc(N)c3o2)N1 (centres undefined)
2. CC1=C(C(=O)NCc2ccccc2CO)C(c2ccccc2Cl)N=C(Nc2nc3ccccc3o2)N1 (centres undefined)

output:
["25.28 10^-6 cm/s", "1362.3 10^-6 cm/s"]
